Values were extracted from paper PMC6400186.

# study_system: T1, mouse ovastacin (mouse, UniProt Q6HA09 85-435)
# T1 sequence (looked up): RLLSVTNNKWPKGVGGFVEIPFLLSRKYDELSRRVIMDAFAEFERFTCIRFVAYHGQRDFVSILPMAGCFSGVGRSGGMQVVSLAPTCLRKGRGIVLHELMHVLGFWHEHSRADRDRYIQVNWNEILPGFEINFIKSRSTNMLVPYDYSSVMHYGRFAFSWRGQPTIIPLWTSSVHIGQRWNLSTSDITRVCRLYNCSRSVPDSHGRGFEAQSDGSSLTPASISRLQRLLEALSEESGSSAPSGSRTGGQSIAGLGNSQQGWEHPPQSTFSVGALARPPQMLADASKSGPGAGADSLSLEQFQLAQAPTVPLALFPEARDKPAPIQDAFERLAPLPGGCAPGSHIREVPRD
# assay_procedure: enzyme inhibition assay (fluorogenic substrate), Ki by Morrison's equation; fetuin-B variant titrated against enzyme; 37°C, 150 mM sodium chloride, 50 mM Tris-HCl pH 7.4, 0.01% Brij 35, triplicate; enzyme and substrate 1.0 nM and 195 µM for astacin, 0.5 nM and 26 µM for meprin β, 0.7 nM and 26 µM for ovastacin
# protocol_conditions: both partners purified
measurement_label: loss of inhibitory potency (change of Ki) against wild-type mouse fetuin-B

# binder, result
data = [
    ("mouse fetuin-B P155A+D156A (natural protein, UniProt Q9QXC1 19-388, looked up, also called mFB_(P155A,D156A); double mutant; source: ExpiCHO-S cells, purified (Ni-NTA)) RSPPAPPLPQRPLSPLHPLGCNDSEVLAVAGFALQNINRDQKDGYMLSLNRVHDVREHYQEDMGSLFYLTLDVLETDCHVLSRKAQKDCKPRMFYESVYGQCKAMFHINKPRRVLYLPAYNCTLRPVSKRKTHTTCAACPSPIDLSNPSALEAATESLAKFNSKSPSKKYELVKVTKAMNQWVSGPAYYVEYLIKEAPCTKSQASCSLQHSDSEPVGICQGSTVQSSLRHVPLIQPVEKSVTVTCEFFESQAQVPGDENPAVTQGPQKLPQKNTAPTSSPSVTAPRGSIQHLPELDDEKPEESKGGSPEEAFPVQLDLTTNPQGDTLDVSFLYLEPGDKKLVVLPFPGKEQRSAECPGPEKENNPLVLPP", "4 orders of magnitude"),
]
